Test Target: T1, human IL-23 (human, UniProt P29460 23-328; Q9NPF7 20-189)
T1 construct: Recombinant (Ebioscience); HIS-tagged in flow cytometry, biotinylated in some assays; also called hIL-23; rhIL-23
T1 sequence 1: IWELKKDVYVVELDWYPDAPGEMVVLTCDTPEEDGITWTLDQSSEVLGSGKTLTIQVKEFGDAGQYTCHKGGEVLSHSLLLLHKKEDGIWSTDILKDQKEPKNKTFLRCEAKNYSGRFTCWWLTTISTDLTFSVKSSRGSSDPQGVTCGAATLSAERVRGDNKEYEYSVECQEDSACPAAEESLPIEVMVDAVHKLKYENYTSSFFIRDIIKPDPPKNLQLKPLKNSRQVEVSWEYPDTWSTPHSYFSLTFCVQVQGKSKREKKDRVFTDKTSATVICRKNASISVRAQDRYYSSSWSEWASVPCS
T1 sequence 2: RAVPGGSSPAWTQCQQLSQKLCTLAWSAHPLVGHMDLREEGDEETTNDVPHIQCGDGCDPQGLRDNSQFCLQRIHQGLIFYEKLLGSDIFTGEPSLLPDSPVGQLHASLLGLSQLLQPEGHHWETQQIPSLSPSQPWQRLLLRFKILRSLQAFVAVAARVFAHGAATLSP
Protocol Notes: SPR, IgG on Protein A
Measurement Name: kon (M⁻¹ s⁻¹)
API: value field is a number in M⁻¹ s⁻¹; no unit string.

[Q] kon lookup needed for Antibody 1 (antibody, human IgG1, kappa, V domains shown, Chimeric PMA204, human IgG1/kappa) VH: EVQLQQSGADLVRSGASIKLSCTASGFNIKDYYMHWVKQRPEQGLEWIGWIDPENGDTEYAPKFQGKATMTADTSSNTAYLQLSSLTSEDTAVYYCNACKELRYFDVWGAGTTVTVSS VL: DIVLTQSPATLSVTPGDSVSLSCRASQSISINLHWYQQKSHESPRLLIKFASQSISGIPSRFSGYGSGTDFTLSINSVETEDFGRYFCQQSNSWPLTFGAGTKLELKR , thanks.
[A] 2.85e+06

[Q] Request the reported kon associated with Antibody 7 (antibody, human IgG1, kappa, V domains shown, Antibody 1 with heavy chain C95N) VH: EVQLQQSGADLVRSGASIKLSCTASGFNIKDYYMHWVKQRPEQGLEWIGWIDPENGDTEYAPKFQGKATMTADTSSNTAYLQLSSLTSEDTAVYYCNANKELRYFDVWGAGTTVTVSS VL: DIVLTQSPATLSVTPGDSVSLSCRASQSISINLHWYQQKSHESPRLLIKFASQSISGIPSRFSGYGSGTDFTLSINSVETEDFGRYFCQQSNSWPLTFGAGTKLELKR
[A] 2.03e+06

[Q] If you can, please state the reported kon value of Antibody 3 (antibody, human IgG1, kappa, V domains shown, Antibody 1 with light chain W94F) VH: EVQLQQSGADLVRSGASIKLSCTASGFNIKDYYMHWVKQRPEQGLEWIGWIDPENGDTEYAPKFQGKATMTADTSSNTAYLQLSSLTSEDTAVYYCNACKELRYFDVWGAGTTVTVSS VL: DIVLTQSPATLSVTPGDSVSLSCRASQSISINLHWYQQKSHESPRLLIKFASQSISGIPSRFSGYGSGTDFTLSINSVETEDFGRYFCQQSNSFPLTFGAGTKLELKR .
[A] 1.24e+06

[Q] Query: kon; subject: Antibody 4 (antibody, human IgG1, kappa, V domains shown, Antibody 1 with heavy chain M34L) VH: EVQLQQSGADLVRSGASIKLSCTASGFNIKDYYLHWVKQRPEQGLEWIGWIDPENGDTEYAPKFQGKATMTADTSSNTAYLQLSSLTSEDTAVYYCNACKELRYFDVWGAGTTVTVSS VL: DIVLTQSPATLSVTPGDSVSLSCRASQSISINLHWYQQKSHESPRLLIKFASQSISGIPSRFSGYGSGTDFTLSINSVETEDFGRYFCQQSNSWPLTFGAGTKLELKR
[A] 1.25e+06
